procedure-text: Cytotoxicity against mouse RAW264.7 cells measured after 48 hrs
Format: toxicity, cell-based
quantity-name: log10 of CC50 at 48 h (log10 of the value in µM)
Use the decimal logarithm of CC50 at 48 h (µM).

Query: What does the record list as log10 of CC50 at 48 h for COc1ccc(/C=N/NC(=O)c2nc3ccccc3[nH]2)cc1 ?
Response: 2.27

Query: Same thing, different molecule: O=C(N/N=C/c1ccncc1)c1nc2ccccc2[nH]1
Response: 2.10

Query: Query COc1cc(/C=N/NC(=O)c2nc3ccccc3[nH]2)cc(OC)c1OC next
Response: 1.63

Query: One more molecule: O=C(N/N=C/c1ccc(Cl)cc1)c1nc2ccccc2[nH]1
Response: 1.09

Query: What about this molecule? O=C(N/N=C/c1ccc([N+](=O)[O-])o1)c1nc2ccccc2[nH]1
Response: 1.41

Query: Entry to check: O=C(N/N=C/c1ccc2c(c1)OCO2)c1nc2ccccc2[nH]1
Response: 1.48

----------
System: Leishmania infantum
procedure-text: Antiparasitic activity against Leishmania infantum promastigotes infected in mouse RAW264.7 cells measured after 48 hrs
Type: functional, organism-based
assay-conditions: RAW264.7, 48 h
Just a reminder that ties go to label 0: only IC50 strictly below 30 µM counts as label 1.

Query: Does O=C(N/N=C/c1ccc(O)c(O)c1)c1nc2ccccc2[nH]1 have IC50 strictly under 30 µM?
Response: label 0

Query: Now consider COc1ccc(/C=N/NC(=O)c2nc3ccccc3[nH]2)cc1O .
Response: label 0

Query: Also check O=C(N/N=C/c1ccc(Cl)cc1)c1nc2ccccc2[nH]1
Response: label 0

Query: How about this molecule: O=C(N/N=C/c1ccc([N+](=O)[O-])o1)c1nc2ccccc2[nH]1
Response: label 1

Query: Then this molecule: O=C(N/N=C/c1ccccc1O)c1nc2ccccc2[nH]1
Response: label 1

Query: # iterate: CCCCCCCCCCCCCCCCOP(=O)([O-])OCC[N+](C)(C)C [MILTEFOSINE]
Response: label 1

----------
Test system: Trypanosoma cruzi
procedure-text: Antitrypanosomal activity against Trypanosoma cruzi Tulahuen expressing beta-galactosidase gene infected in mouse L929 cells measured after 120 hrs
Assay type: functional, organism-based
assay-conditions: L929, 120 h
pIC50: −log10 of the molar value.
Returns MET if the recorded pIC50 is greater than or equal to 4, and NOT MET otherwise.

Query: Is reported pIC50 greater than or equal to 4 here: O=C(N/N=C/c1ccc(Cl)cc1)c1nc2ccccc2[nH]1
Response: MET

Query: Request: O=C(N/N=C/c1ccc(F)cc1)c1nc2ccccc2[nH]1
Response: NOT MET

Query: Try this molecule too: O=C(N/N=C/c1ccc(O)c(O)c1)c1nc2ccccc2[nH]1
Response: MET

Query: Follow-up item: O=C(Cn1ccnc1[N+](=O)[O-])NCc1ccccc1
Response: MET

Query: Can you handle COc1cc(/C=N/NC(=O)c2nc3ccccc3[nH]2)cc(OC)c1OC next?
Response: MET

Query: Check O=C(N/N=C/c1ccc(Br)cc1)c1nc2ccccc2[nH]1 too.
Response: MET

Query: Please do the same for O=C(N/N=C/c1ccc([N+](=O)[O-])o1)c1nc2ccccc2[nH]1 as well.
Response: MET

Query: Another molecule to look at: COc1ccc(/C=N/NC(=O)c2nc3ccccc3[nH]2)cc1OC
Response: NOT MET

Query: Continue with O=C(N/N=C/c1ccc(O)cc1)c1nc2ccccc2[nH]1
Response: MET

Query: What would you report for COc1ccc(/C=N/NC(=O)c2nc3ccccc3[nH]2)cc1O ?
Response: MET

Query: Please answer likewise for COc1cc(/C=N/NC(=O)c2nc3ccccc3[nH]2)ccc1O
Response: MET

Query: Could you do the same for O=C(N/N=C/c1ccc([N+](=O)[O-])cc1)c1nc2ccccc2[nH]1 , please?
Response: NOT MET

Query: What do you get for O=C(N/N=C/c1ccccc1O)c1nc2ccccc2[nH]1 ?
Response: MET

Query: Now try COc1cc(/C=N/NC(=O)c2nc3ccccc3[nH]2)cc(OC)c1 .
Response: MET

Query: Proceed to O=C(N/N=C/c1ccncc1)c1nc2ccccc2[nH]1
Response: MET

----------
Kindly state selectivity ratio for each of the entries shown.
procedure-text: Selectivity index, ratio of CC50 for mouse RAW264.7 cells to IC50 for Leishmania amazonensis amastigotes infected in mouse RAW264.7 cells
Type: toxicity, cell-based
assay-conditions: read-out: Ratio CC50/IC50
Answer with the value's number alone.

Query: I would be grateful if you could share the reported selectivity ratio for COc1ccc(/C=N/NC(=O)c2nc3ccccc3[nH]2)cc1 .
Response: 5.4

Query: For O=C(N/N=C/c1ccc(O)c(O)c1)c1nc2ccccc2[nH]1 then?
Response: 0.2

Query: And the next one, CCCCCCCCCCCCCCCCOP(=O)([O-])OCC[N+](C)(C)C ?
Response: 13.1

Query: Try this molecule too: O=C(N/N=C/c1ccc2c(c1)OCO2)c1nc2ccccc2[nH]1
Response: 0.7

Query: What would you report for O=C(N/N=C/c1cccs1)c1nc2ccccc2[nH]1 ?
Response: 2.1

Query: Okay, and O=C(N/N=C/c1ccncc1)c1nc2ccccc2[nH]1 ?
Response: 0.7

----------
Would you kindly list selectivity ratio for each of these molecules?
procedure-text: Selectivity index, ratio of CC50 for mouse L929 cells to IC50 for Trypanosoma cruzi Tulahuen expressing beta-galactosidase gene infected in mouse L929 cells
Format: toxicity, cell-based
assay-conditions: read-out: Ratio CC50/IC50
Give only the figure.

Query: Using the record for COc1cc(/C=N/NC(=O)c2nc3ccccc3[nH]2)cc(OC)c1 , report its selectivity ratio.
Response: 5.6

Query: Same read-out for O=C(N/N=C/c1cccs1)c1nc2ccccc2[nH]1 ?
Response: 1.9

Query: Same question, O=C(Cn1ccnc1[N+](=O)[O-])NCc1ccccc1 this time
Response: 1390

Query: Can you check O=C(N/N=C/c1ccc(O)c(O)c1)c1nc2ccccc2[nH]1 next?
Response: 1.4

Query: Same question, COc1cc(/C=N/NC(=O)c2nc3ccccc3[nH]2)cc([N+](=O)[O-])c1O this time
Response: 1.2

----------
For each of the compounds below, state its pIC50.
Test system: Trypanosoma cruzi
procedure-text: Antitrypanosomal activity against Trypanosoma cruzi Tulahuen expressing beta-galactosidase gene infected in mouse L929 cells measured after 120 hrs
Type: functional, organism-based
assay-conditions: L929, 120 h
pIC50 is defined as minus the log10 of a concentration measured in mol/L.

Query: Entry under review: O=C(N/N=C/c1ccc2c(c1)OCO2)c1nc2ccccc2[nH]1 . Reported pIC50?
Response: 3.98

Query: Now try COc1cc(/C=N/NC(=O)c2nc3ccccc3[nH]2)cc([N+](=O)[O-])c1O .
Response: 3.98

Query: Again, but for O=C(N/N=C/c1ccccc1)c1nc2ccccc2[nH]1
Response: 4.01

Query: Proceed to O=C(N/N=C/c1cccs1)c1nc2ccccc2[nH]1
Response: 4.04

Query: What do you get for COc1ccc(/C=N/NC(=O)c2nc3ccccc3[nH]2)cc1 ?
Response: 4.09
